# SYSTEM_TESTED: VIM-1 (Pseudomonas aeruginosa (strain ATCC 15692 / DSM 22644 / CIP 104116 / JCM 14847 / LMG 12228 / 1C / PRS 101 / PAO1))
# EXPERIMENT_NOTES: biochemical
# CONDITIONS_USED: CCF2-FA substrate, 2 hours at 25° C
So I've got a bunch of molecules here, and I need their IC50 values.
Hi! Could you send only the number? It should be in nM, unit omitted.

Short answer for `NS(=O)(=O)c1c(S(=O)(=O)C2CCNCC2)ccc(-c2cccc3c2CNC3=O)c1-c1nn[nH]n1` : IC50 was 0.517

Noted for Cc1ccc2cccc(-c3ccc(S(=O)(=O)C4CNC4)c(S(N)(=O)=O)c3-c3nnn[nH]3)c2n1.O=C(O)C(F)(F)F [Example 122, 2,2,2-trifluoroacetate] : its IC50 reads 0.324

get_value(item= COc1ccc(-c2ccc(S(=O)(=O)CCN)c(S(N)(=O)=O)c2-c2nnn[nH]2)c2[nH]c(C(F)(F)F)nc12.O=C(O)C(F)(F)F [Example 164, 2,2,2-trifluoroacetate] , readout=IC50) returns 0.143

Documented IC50 of `Nc1nc2cccc(-c3ccc(S(=O)(=O)C4CCNCC4)c(S(N)(=O)=O)c3-c3nn[nH]n3)c2[nH]1` : 0.306

Entry `Cn1c(N)nc2c(-c3ccc(S(=O)(=O)C4CNC4)c(S(N)(=O)=O)c3-c3nn[nH]n3)cccc21` ; IC50 = 0.213

Looking up `NC[C@H](O)CS(=O)(=O)c1ccc(-c2cccc(-c3c[nH]c(N)n3)c2)c(-c2nn[nH]n2)c1S(N)(=O)=O` , I see its IC50 listed as 1.17
